All figures here come from the kinase profiling compilation of Christmann-Franck et al. (2016).

- system.under.test: CSNK2A1 (human)
- protocol: KINOMEscan competition binding
- stated.conditions: compound 10.0 µM
endpoint.name: kinase still bound, per cent of control (%)
Dear colleague, please return just the value in %, with no unit written.

// below: answered molecules
N#Cc1c(NC(=O)c2cccc3ccccc23)sc2c1CCCC2; 89
Cc1ccc(NC(=O)c2cccc(C(C)(C)C#N)c2)cc1Nc1ccc2ncn(C)c(=O)c2c1; 88
O=C(NC1CC1)c1cccc(-c2ccc3c(NC(=O)C4CC4)n[nH]c3c2)c1; 62

GET /value?item= "CC[C@@H]1C(=O)N(C)c2cnc(Nc3ccc(C(=O)NC4CCN(C)CC4)cc3OC)nc2N1C1CCCC1" &field=kinase still bound, per cent of control returns 100

GET /value?item= "C[C@@H](Oc1cc(-n2cnc3ccc(CN4CCN(C)CC4)cc32)sc1C(N)=O)c1ccccc1C(F)(F)F" &field=kinase still bound, per cent of control returns 13

GET /value?item= "CCOc1cc2ncc(C#N)c(Nc3ccc(OCc4ccccn4)c(Cl)c3)c2cc1NC(=O)/C=C/CN(C)C" &field=kinase still bound, per cent of control returns 94

GET /value?item= "COc1cc(N2CCN(C)CC2)ccc1Nc1nc(N)c(C(=O)c2c(Cl)cccc2Cl)s1" &field=kinase still bound, per cent of control returns 91

GET /value?item= "CN(C)C/C=C/C(=O)Nc1cccc(Nc2ncc3c(n2)N(C)c2ccccc2C(=O)N3C)c1" &field=kinase still bound, per cent of control returns 100

GET /value?item= "O=C(NOC[C@H](O)CO)c1ccc(F)c(F)c1Nc1ccc(I)cc1F" &field=kinase still bound, per cent of control returns 77

GET /value?item= "C=CC(=O)Nc1cc(NC(=O)c2ccc(C)c(NC(=O)c3ccno3)c2)cc(C(F)(F)F)c1" &field=kinase still bound, per cent of control returns 100

GET /value?item= "Cc1ccc(C(=O)Nc2cccc(C(F)(F)F)c2)cc1Nc1cncc(C(N)=O)c1" &field=kinase still bound, per cent of control returns 100
